- ASSAY TARGET: Kv2.1 (Homo sapiens)
- Construct: host or cells: HEK293 or CHO
- Sequence (Q14721 whole entry): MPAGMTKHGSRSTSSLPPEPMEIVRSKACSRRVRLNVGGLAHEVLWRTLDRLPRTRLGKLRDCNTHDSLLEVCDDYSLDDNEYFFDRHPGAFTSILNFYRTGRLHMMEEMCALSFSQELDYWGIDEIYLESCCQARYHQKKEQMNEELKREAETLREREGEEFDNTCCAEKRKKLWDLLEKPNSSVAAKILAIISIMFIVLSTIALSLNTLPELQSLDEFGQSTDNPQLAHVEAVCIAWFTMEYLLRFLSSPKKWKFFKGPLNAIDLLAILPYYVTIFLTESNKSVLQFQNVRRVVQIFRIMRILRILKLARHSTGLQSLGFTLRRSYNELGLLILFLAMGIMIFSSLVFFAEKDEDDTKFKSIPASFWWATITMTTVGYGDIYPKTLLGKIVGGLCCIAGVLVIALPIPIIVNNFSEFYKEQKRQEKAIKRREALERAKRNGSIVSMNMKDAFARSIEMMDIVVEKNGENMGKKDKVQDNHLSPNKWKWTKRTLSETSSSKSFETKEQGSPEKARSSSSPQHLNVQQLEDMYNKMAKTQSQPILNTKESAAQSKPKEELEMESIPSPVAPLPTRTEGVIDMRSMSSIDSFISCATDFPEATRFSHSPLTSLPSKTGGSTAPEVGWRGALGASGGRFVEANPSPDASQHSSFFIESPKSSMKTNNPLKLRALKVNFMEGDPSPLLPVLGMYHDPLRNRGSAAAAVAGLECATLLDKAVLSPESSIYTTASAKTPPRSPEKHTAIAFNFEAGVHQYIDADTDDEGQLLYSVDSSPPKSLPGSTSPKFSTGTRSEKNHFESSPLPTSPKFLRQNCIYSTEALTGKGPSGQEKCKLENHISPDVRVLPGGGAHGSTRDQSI
- MEASUREMENT NOTES: cell-based
- CONDITION CONTEXT: peptide at 0.2 μM; 100% = no change, <100% = inhibition
Measured Activity of Kv2.1 with peptide, expressed as a percentage of the reference compound by item
Answer with a number only, understood to be in %.

Below: 3 substances and their reported Activity of Kv2.1 with peptide, expressed as a percentage of the reference compound.
SUBSTANCE | VALUE
14 (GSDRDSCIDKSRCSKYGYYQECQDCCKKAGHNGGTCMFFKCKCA) [compound 14] | 109
39 (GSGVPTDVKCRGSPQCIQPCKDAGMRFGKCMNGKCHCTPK) [compound 39] | 118
13 (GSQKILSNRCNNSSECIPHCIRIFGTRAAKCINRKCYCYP) [compound 13] | 104

Which measured Activity of Kv2.1 with peptide, expressed as a percentage of the reference compound belongs to 27 (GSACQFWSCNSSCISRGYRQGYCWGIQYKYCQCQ) [compound 27] , tested on Kv2.1 (Homo sapiens)?
91

Which measured Activity of Kv2.1 with peptide, expressed as a percentage of the reference compound belongs to 17 (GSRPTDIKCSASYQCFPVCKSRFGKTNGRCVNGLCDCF) [compound 17] , tested on Kv2.1 (Homo sapiens)?
88

Which measured Activity of Kv2.1 with peptide, expressed as a percentage of the reference compound belongs to 21 (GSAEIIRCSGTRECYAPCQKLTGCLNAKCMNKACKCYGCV) [compound 21] , tested on Kv2.1 (Homo sapiens)?
110

Which measured Activity of Kv2.1 with peptide, expressed as a percentage of the reference compound belongs to 30 (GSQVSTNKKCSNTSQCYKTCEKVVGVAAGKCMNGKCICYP) [compound 30] , tested on Kv2.1 (Homo sapiens)?
107

Which measured Activity of Kv2.1 with peptide, expressed as a percentage of the reference compound belongs to 25 (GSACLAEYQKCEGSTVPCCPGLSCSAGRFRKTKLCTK) [compound 25] , tested on Kv2.1 (Homo sapiens)?
88
